# experimental.target: EcNFeoB (GTPase domain of Escherichia coli FeoB) (Escherichia coli, UniProt P33650, R154A)
# Construct: soluble N-terminal GTPase domain, residues 1-270; GST fusion (pGEX-4T-1) in E. coli BL21(DE3), GST removed by thrombin, size exclusion; an alternate S150A-TEV construct (TEV-cleaved) was also made
# test.details: isothermal titration calorimetry, one-site model
# Format: binding
# assay.setup: read-out: Kd^** (μM) GDP
readout: Kd (µM)
The reply should contain only the number, in µM.

[Q] Return reported Kd; argument: `Nc1nc2c(ncn2[C@@H]2O[C@H](COP(=O)(O)OP(=O)(O)O)[C@@H](O)[C@H]2O)c(=O)[nH]1`
[A] 9
